- Test system: PA-1
- protocol_notes: Primary qHTS to identify gynecologic anti-cancer compounds using libraries of approved drugs and bioactive compounds (AID 1345084); also: nearly all actives have a fitted effect of over 55% in size
- assay_context: Gynecologic cancer cell panel viability, ATPlite luminescence, 48 h; series mostly up to 57.5 µM
Inconclusive results are not listed. Activity calls are given as the source filed them. Calls follow the shape of the dose curve; as a rule, active = well fitted cell-killing curve with a large enough effect; inconclusive = small, poorly fitted or top-dose-only effect, or effect the other way; inactive = flat fitted curve, though single readings scatter.
Give one outcome, nothing more. List: active, inactive

Can you look up the reported call for COc1cc(N2CCC(N3CCN(C)CC3)CC2)ccc1Nc1ncnc(Nc2ccccc2S(=O)(=O)C(C)C)n1 for me?
active

Next: COC(=O)[C@@H]1[C@H]2C[C@H]3c4[nH]c5ccccc5c4CCN3C[C@@H]2CC[C@@H]1O
inactive

Item: Cn1c(N2CCCCS2(=O)=O)nc(C(=O)NCc2ccc(F)cc2)c(O)c1=O
inactive

Subsequent entry: COc1cc2c(cc1OC)CN(CCc1ccc(NC(=O)c3cc(OC)c(OC)cc3NC(=O)c3cnc4ccccc4c3)cc1)CC2
active

Another: CC1(C)CCC(CN2CCN(c3ccc(C(=O)NS(=O)(=O)c4ccc(NCC5CCOCC5)c([N+](=O)[O-])c4)c(Oc4cnc5[nH]ccc5c4)c3)CC2)=C(c2ccc(Cl)cc2)C1
inactive

What about this compound? COc1ccc2c(Oc3ccc(NC(=O)c4c(C)n(CC(C)(C)O)n(-c5ccccc5)c4=O)cc3F)ccnc2c1
inactive

How about this compound: Cc1nc(N)sc1-c1ccnc(Nc2ccc(N3CCOCC3)cc2)n1
active

Also need CC1=C(/C=C/C(C)=C/C=C/C(C)=C/C(=O)Nc2ccc(O)cc2)C(C)(C)CCC1 , thanks.
active

Same lookup for COc1ccc(C2Sc3ccccc3N(CCN(C)C)C(=O)C2OC(C)=O)cc1 (stereo not drawn) , please.
inactive

Note, next up: CCOC(=O)C1=C(N)Oc2ccc(Br)cc2C1C(C#N)C(=O)OCC (stereo not drawn)
inactive

Cc1ccccc1C(C(=O)NC1CCCCC1)N(C(=O)Cn1ccnc1C)c1cccc(F)c1 (stereo not drawn) ?
inactive

Okay, and CC(C)OC(=O)C(C)(C)Oc1ccc(C(=O)c2ccc(Cl)cc2)cc1 ?
inactive

Consider next the compound O=C(O)c1cc(-c2ccccc2)nc2ccccc12 in the same way.
inactive

What about Cc1c(NC(=O)c2ccc(C(C)(C)C)cc2)cccc1-c1cn(C)c(=O)c(Nc2ccc(C(=O)N3CCOCC3)cc2)n1 ?
inactive

Same thing, different compound: COc1cc2nc(-c3ccc(N4CCN(C)CC4)cc3)nc(NCCN3CCOCC3)c2cc1OC
active

Similarly, CC(C)(C)OC(=O)N[C@H]1CCCCCC=C[C@@H]2C[C@@]2(C(=O)NS(=O)(=O)C2CC2)NC(=O)[C@@H]2C[C@@H](OC(=O)N3Cc4cccc(F)c4C3)CN2C1=O ?
inactive

Thanks! And CCN1CCC[C@H]1CNC(=O)c1cc(S(N)(=O)=O)ccc1OC ?
inactive

Next up: NC(N)=Nc1nc(CSCC/C(N)=N/S(N)(=O)=O)cs1
inactive

Values from PubChem BioAssay (NCATS)
